# experiment.summary: clinical
# assay.context: human, in vivo, po, 750 mg, Serum Cmax
measured.metric: Cmax (ng/mL)
Numeric only. Scale: ng/mL

Name the recorded Cmax for C[C@H]1COc2c(N3CCN(C)CC3)c(F)cc3c(=O)c(C(=O)O)cn1c23 .
7300

====

# experiment.summary: clinical
# assay.context: human, in vivo, 20 mg
measured.metric: AUC (ng·h/mL)
Report as a plain number; the unit ng·h/mL is understood.

Recorded AUC of C[C@H]1COc2c(N3CCN(C)CC3)c(F)cc3c(=O)c(C(=O)O)cn1c23 [Levofloxacin, levofloxacin] , please.
67100

====

# experiment.summary: in vivo
# assay.context: male, Sprague-Dawley, rat, in vivo, iv, 10 mg/kg
measured.metric: AUC(0-inf) (ng·h/mL)
Lab book: enter the figure in ng·h/mL, no units written.

As a guide, the following entries are already answered.
| compound | AUC(0-inf), ng·h/mL |
| --- | --- |
| CCn1cc(C(=O)O)c(=O)c2cc(F)c(N3CCNCC3)cc21 [Norfloxacin, norfloxacin] | 4650 |
| COc1c(N2CCNC(C)C2)c(F)cc2c(=O)c(C(=O)O)cn(C3CC3)c12 (stereo not shown) [Gatifloxacin, gatifloxacin] | 5310 |

Could you tell me which AUC(0-inf) is on file for C[C@H]1COc2c(N3CCN(C)CC3)c(F)cc3c(=O)c(C(=O)O)cn1c23 [Levofloxacin, levofloxacin] ?
3800

Suppose we examine the compound CO/N=C1\CN(c2nc3c(cc2F)c(=O)c(C(=O)O)cn3C2CC2)CC1CN (stereo not shown) [Gemifloxacin, gemifloxacin] ; what AUC(0-inf) value has been reported?
4540

====

Below: a set of entries, each annotated with reported MRT.
# experiment.summary: in vivo
# assay.context: male, Sprague-Dawley, rat, in vivo, inhaled or intranasal, 10 mg/kg
Enter your answer as a number in h; do not include the unit.

The following compounds have reported results that may help.
| compound | MRT / h |
| --- | --- |
| CCn1cc(C(=O)O)c(=O)c2cc(F)c(N3CCNCC3)cc21 | 1.29 |
| COc1c(N2CCNC(C)C2)c(F)cc2c(=O)c(C(=O)O)cn(C3CC3)c12 (stereo not shown) | 1.34 |
| CO/N=C1\CN(c2nc3c(cc2F)c(=O)c(C(=O)O)cn3C2CC2)CC1CN (stereo not shown) | 2.06 |

// moving on: another record for MRT
What does the data say about its MRT? Entry: C[C@H]1COc2c(N3CCN(C)CC3)c(F)cc3c(=O)c(C(=O)O)cn1c23
0.7

====

# experiment.summary: clinical
# assay.context: human, in vivo, 50 mg, Total levofloxacin clearance, NHV subjects, serum
measured.metric: clearance

Would you kindly share the measured clearance for C[C@H]1COc2c(N3CCN(C)CC3)c(F)cc3c(=O)c(C(=O)O)cn1c23 [Levofloxacin, levofloxacin] ?
287 mL/min

====

# experiment.summary: in vivo
# assay.context: Sprague-Dawley, rat, inhaled or intranasal, 10 mg/kg
measured.metric: MRT (min)
Give a bare numeral; the unit min is implied.

# input compound: C[C@H]1COc2c(N3CCN(C)CC3)c(F)cc3c(=O)c(C(=O)O)cn1c23 [Levofloxacin, levofloxacin] ; wanted: its MRT
42

====

# experiment.summary: in vivo
# assay.context: male, Sprague-Dawley, rat, in vivo, inhaled or intranasal, 10 mg/kg
Readings of AUC(0-inf) for the listed molecules
Hi! Could you send only the number? It should be in ng·h/mL, unit omitted.

| molecule | AUC(0-inf) (ng·h/mL) |
| --- | --- |
| COc1c(N2CCNC(C)C2)c(F)cc2c(=O)c(C(=O)O)cn(C3CC3)c12 (stereo not shown) [Gatifloxacin, gatifloxacin] | 5830 |

Returns the measured AUC(0-inf) for the input molecule. Input: CO/N=C1\CN(c2nc3c(cc2F)c(=O)c(C(=O)O)cn3C2CC2)CC1CN (stereo not shown) [Gemifloxacin, gemifloxacin]
5860

Give its AUC(0-inf) value. Item: CCn1cc(C(=O)O)c(=O)c2cc(F)c(N3CCNCC3)cc21 [Norfloxacin, norfloxacin]
4460

Sample C[C@H]1COc2c(N3CCN(C)CC3)c(F)cc3c(=O)c(C(=O)O)cn1c23 [Levofloxacin, levofloxacin] — what was its AUC(0-inf)?
3700
